// compounds with reported IC50 on MERTK (Homo sapiens, UniProt Q12866), multi-publication

compound: Cc1cccc(Nc2ncc3c(OC4CCNCC4)ncc([C@H]4CC[C@H](O)CC4)c3n2)c1
IC50: ≤ 100 nM

Item "Nc1ncc(-c2cnn(C3CCNCC3)c2)cc1C(=O)N[C@@H]1CCN(Cc2c(F)ccc(F)c2F)C1" with MERTK (Homo sapiens, UniProt Q12866) - IC50?
> 1000 nM

Form field - read-out: IC50; system: MERTK (Homo sapiens, UniProt Q12866); submitted item: "CCN(C(=O)N1CCN(c2cc(-c3cc([C@H]4CC[C@H](O)CC4)n4nc(N[C@@H](C)COC)ncc34)ccn2)CC1)C(C)C"
≤ 100 nM

---

Collected IC50 for MERTK (Homo sapiens, UniProt Q12866) across several studies; molecules listed below.

Look over these answered cases.
molecule: CCCC(C)Nc1ncc2c(=O)n(C3CCN(CCOC)CC3)cc([C@H]3CC[C@H](O)CC3)c2n1 (stereo partly drawn)
IC50: ≤ 100 nM

molecule: COC[C@H](C)Nc1ncc2c(-c3cnn(Cc4cn[nH]c4)c3)cc([C@H]3CC[C@H](O)CC3)n2n1
IC50: ≤ 100 nM

molecule: C[C@H](Nc1ncc2c(-c3ccc(CN4CCOCC4)cc3)cc([C@H]3CC[C@H](O)CC3)n2n1)[C@@H]1CCCO1
IC50: ≤ 100 nM

molecule: COc1cc2nccc(Oc3ccc(NC(=O)c4ccn(-c5ccc(F)cc5C)n4)cc3F)c2c2c1OCCO2
IC50: 500 to 5000 nM

molecule: CCCCC[C@H](C)Nc1ncc2c(=O)n(C3CCOCC3)cc([C@H]3CC[C@H](O)CC3)c2n1
IC50: ≤ 100 nM

Find the measured IC50: item CCCC(C)Nc1ncc2c(OC3CCS(=O)(=O)CC3)ncc([C@H]3CC[C@H](O)CC3)c2n1 (stereo partly drawn) , target or system MERTK (Homo sapiens, UniProt Q12866).
≤ 100 nM

State its IC50 on MERTK (Homo sapiens, UniProt Q12866): CC(Nc1ncc2c(-c3cnn(C4COC4)c3)cc(C3CCC(O)CC3)n2n1)c1ccccn1 (stereo not drawn)
100 to 1000 nM

Recall the recorded IC50 for "Cn1cc(-c2cnc(N)c(C(=O)N[C@@H]3CCN(C(=O)c4cc(Br)c(Br)s4)C3)c2)cn1" with MERTK (Homo sapiens, UniProt Q12866) and state it.
> 1000 nM

Param readout= IC50; system= MERTK (Homo sapiens, UniProt Q12866); entry= "CN(C)Cc1cccc(-c2cccc(NC(=O)N3CC[C@@H](NC(=O)c4cc(-c5cnn(C)c5)cnc4N)C3)c2)c1" ; returns value.
10 to 100 nM

Please provide the recorded IC50 for NC(=O)c1ccc(-c2n[nH]c3ncc(-c4ccc5c(c4)CCC(N4CCCC4)CC5)cc23)cc1F (stereo not drawn) , tested on MERTK (Homo sapiens, UniProt Q12866).
100 to 1000 nM

Provide the documented IC50 with MERTK (Homo sapiens, UniProt Q12866) as the system for "CC[C@@H](C)Nc1ncc2c(OC3CCN(C)CC3)ncc([C@H]3CC[C@H](O)CC3)c2n1"
≤ 100 nM

// fetch MERTK (Homo sapiens, UniProt Q12866) IC50 for "Cn1cc(-c2cnc(N)c(C(=O)N[C@@H]3CCN(C(=O)c4ccc(OCc5ccccc5)cc4)C3)c2)cn1"
100 to 1000 nM

Kindly state the measured IC50 obtained for CCCC(C)Nc1ncc2c(OCCN(C)C)ncc([C@H]3CC[C@H](O)CC3)c2n1 (stereo partly drawn) with MERTK (Homo sapiens, UniProt Q12866).
≤ 100 nM

Kindly state the measured IC50 obtained for "Cc1ccc(-c2cn(C3CCOCC3)nc(C(=O)Nc3ccc(Oc4ccnc5cc6c(cc45)OCO6)cn3)c2=O)cc1" with MERTK (Homo sapiens, UniProt Q12866).
48 nM

I'm curious: which IC50 was measured for "COC[C@H](C)Nc1ncc2c(-c3cnc(C)o3)cc([C@H]3CC[C@H](O)CC3)n2n1" tested on MERTK (Homo sapiens, UniProt Q12866)?
≤ 100 nM
